Ref: ChEMBL document CHEMBL4251654

# system.name: UniProt P20618
# Sequence (whole entry): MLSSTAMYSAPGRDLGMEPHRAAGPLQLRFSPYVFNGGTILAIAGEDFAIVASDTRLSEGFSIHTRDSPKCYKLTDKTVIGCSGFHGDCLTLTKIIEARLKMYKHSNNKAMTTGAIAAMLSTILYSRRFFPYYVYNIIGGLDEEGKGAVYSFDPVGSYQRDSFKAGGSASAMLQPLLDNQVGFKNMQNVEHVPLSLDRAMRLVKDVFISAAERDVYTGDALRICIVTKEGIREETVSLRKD
# experiment: Inhibition of human 20S constitutive proteasome beta-1 at 50 uM using Z-LLE-betaNA as substrate incubated for 15 mins measured for 45 mins by fluorescence assay relative to control
A collection of compounds and their measured inhibition

C[C@H](NC(=O)[C@@H](N)Cc1ccc(OCc2ccccc2)cc1)C(=O)N[C@@H](C[C@]1(O)C(=O)Nc2ccccc21)C(=O)NCc1ccccc1
> 85%

Read off the recorded inhibition for COc1ccc(C[C@H](NC(=O)[C@H](C)NC(=O)CN2CCOCC2)C(=O)N[C@@H](Cc2ccccc2)C(=O)[C@@]2(C)CO2)cc1
> 85%

Read off the recorded inhibition for C[C@H](O)[C@@H](NC(=O)OCc1ccccc1)C(=O)N[C@@H](C[C@]1(O)C(=O)Nc2ccccc21)C(=O)NCc1ccccc1
20%

Read off the recorded inhibition for CNC(=O)[C@H](C[C@]1(O)C(=O)Nc2ccccc21)NC(=O)[C@H](C)NC(=O)[C@H](Cc1ccc(OCc2ccccc2)cc1)NC(=O)OC(C)(C)C
20%

Read off the recorded inhibition for C[C@H](NC(=O)c1ccc(OCc2ccccc2)cc1)C(=O)N[C@@H](C[C@]1(O)C(=O)Nc2ccccc21)C(=O)NCc1ccccc1
> 85%

Read off the recorded inhibition for C[C@@H](O)[C@@H](NC(=O)c1ccc(OCc2ccccc2)cc1)C(=O)N[C@@H](C[C@]1(O)C(=O)Nc2ccccc21)C(=O)NCc1ccccc1
> 85%
